# SUBJECT_OF_TEST: human Matrix Metalloproteinase-9 (MMP9), MMP9 (gene 4318)
# RUN_DESCRIPTION: NVS_ENZ_hMMP9: NovaScreen (NVS) Enzymatic Assay for human Matrix Metalloproteinase-9 (MMP9) (AID 2283190);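 also: cell-free recombinant MMP9 protease activity read by fluorescent substrate signal; active means inhibition seen as loss of fluorescence signal versus DMSO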
Records with an inconclusive call do not appear. Activity calls are given as the source filed them. The calls were made as follows: active = hit-call score of the fitted dose curve at least 0.9, where 1 is the maximum; inconclusive = response in the unintended direction; inactive = score below 0.9.
Outcomes: class 1 for active, class 0 for inactive

# COMPOUND, DISCRETE_LABEL
measured = [
    ("CCCCN(CCCC)C(=S)[S-].CCCCN(CCCC)C(=S)[S-].[Ni+2]", "class 1"),
    ("BrCCCCBr", "class 1"),
    ("CC(C)(c1ccccc1)c1cc(-n2nc3ccccc3n2)c(O)c(C(C)(C)c2ccccc2)c1", "class 1"),
    ("CC(C)(C)c1cc([N+](=O)[O-])cc(C(C)(C)C)c1O", "class 1"),
    ("Oc1c(Br)cc(Br)cc1Br", "class 0"),
    ("[Cl][Sn]([c]1ccccc1)([c]1ccccc1)[c]1ccccc1", "class 0"),
    ("CC1(C)[C@H](C(=O)O[C@H](C#N)c2cccc(Oc3ccccc3)c2)[C@@H]1/C=C(\\Cl)C(F)(F)F", "class 1"),
    ("CCOP(=O)(OCC)OC(=CCl)c1ccc(Cl)cc1Cl", "class 1"),
    ("O=c1oc2ccccc2c(O)c1C(CC(O)c1ccc(-c2ccc(Br)cc2)cc1)c1ccccc1 (centres undefined)", "class 1"),
]

###

# Read-out: Collagen IV, COL4A1 (gene 1282)
# RUN_DESCRIPTION: BSK_MyoF_CollagenIV: BioMAP Diversity Plus: MyoF Assay for Collagen IV Biomarker Activity (AID 2284247)
# EXPERIMENTAL_PARAMETERS: primary human lung fibroblasts
The source made the active and inactive calls. The calls were made as follows: active = hit-call score of the fitted dose curve at least 0.9, where 1 is the maximum; inactive = score below 0.9.

# MOLECULE, AC50
rows = [
    ("O=C(O)COc1cc(Cl)c(Cl)cc1Cl", "inactive"),
    ("N#CCCC(Br)(C#N)CBr (stereo not drawn)", "914 nM (active)"),
    ("CCOC(=O)CCN(SN(C)C(=O)Oc1cccc2c1OC(C)(C)C2)C(C)C", "inactive"),
    ("NC(=O)CCl", "inactive"),
    ("Cc1cc(Cl)ccc1N", "inactive"),
    ("CC1(C)[C@H](C(=O)O[C@H](C#N)c2cccc(Oc3ccccc3)c2)[C@@H]1/C=C(\\Cl)C(F)(F)F", "inactive"),
    ("CCOC(=O)CC(=O)CCl", "inactive"),
    ("CCOP(=S)(OCC)SCS(=O)(=O)C(C)(C)C", "inactive"),
    ("Cc1cc(C(C)(C)c2ccc(O)c(C)c2)ccc1O", "inactive"),
    ("Cc1cccc(OP(=O)(Oc2cccc(C)c2)Oc2cccc(C)c2)c1", "38.2 nM (active)"),
    ("Oc1ccc(Cc2ccc(O)cc2)cc1", "inactive"),
    ("O=S(=O)(C(Cl)(Cl)Cl)C(Cl)(Cl)Cl", "2530 nM (active)"),
    ("Nc1ccc(N)cc1", "inactive"),
]

###

# Read-out: Interferon-gamma inducible Protein 10 (IP10), CXCL10 (gene 3627)
# RUN_DESCRIPTION: BSK_BE3C_IP10: BioMAP Diversity Plus: BE3C Assay for Interferon-gamma inducible Protein 10 (IP10) Biomarker Activity (AID 2283034)
# EXPERIMENTAL_PARAMETERS: primary human bronchial epithelial cells; actives raise or lower the signal
Active and inactive are the calls of the source. Rule for the calls: active = hit-call score of the fitted dose curve at least 0.9, where 1 is the maximum; inactive = score below 0.9.
Outcome codes: active, inactive

# COMPOUND, DISCRETE_LABEL
rows = [
    ("OC(Cc1ccccc1Cl)(Cn1[nH]cnc1=S)C1(Cl)CC1 (configuration not stated)", "active"),
    ("O=c1oc2ccccc2c(O)c1C(CC(O)c1ccc(-c2ccc(Br)cc2)cc1)c1ccccc1 (configuration not stated)", "active"),
    ("CCOP(=S)(OCC)SCS(=O)(=O)C(C)(C)C", "inactive"),
    ("CC(C)N(C(=O)CCl)c1ccccc1", "active"),
    ("Cc1ccccc1OP(=O)(Oc1ccccc1C)Oc1ccccc1C", "active"),
    ("Cc1ccccc1OP(=O)(Oc1ccccc1)Oc1ccccc1", "inactive"),
    ("COCC(=O)N(c1c(C)cccc1C)[C@H](C)C(=O)OC", "inactive"),
    ("O=C(O)C1(c2ccc3c(c2)OC[C@H](Cc2ccc(-c4ccccc4)cc2)[C@H]3O)CCCC1", "active"),
    ("OCCN(CCO)CCO", "inactive"),
    ("OC(Cc1ccccc1Cl)(Cn1cncn1)C1(Cl)CC1 (configuration not stated)", "inactive"),
    ("c1ccc(-c2cccc(-c3ccccc3)c2)cc1", "active"),
    ("Cc1cc(Cl)ccc1N", "inactive"),
]

###

# SUBJECT_OF_TEST: AR (gene 367) (UniProt P10275)
# Sequence (P10275 whole entry, looked up): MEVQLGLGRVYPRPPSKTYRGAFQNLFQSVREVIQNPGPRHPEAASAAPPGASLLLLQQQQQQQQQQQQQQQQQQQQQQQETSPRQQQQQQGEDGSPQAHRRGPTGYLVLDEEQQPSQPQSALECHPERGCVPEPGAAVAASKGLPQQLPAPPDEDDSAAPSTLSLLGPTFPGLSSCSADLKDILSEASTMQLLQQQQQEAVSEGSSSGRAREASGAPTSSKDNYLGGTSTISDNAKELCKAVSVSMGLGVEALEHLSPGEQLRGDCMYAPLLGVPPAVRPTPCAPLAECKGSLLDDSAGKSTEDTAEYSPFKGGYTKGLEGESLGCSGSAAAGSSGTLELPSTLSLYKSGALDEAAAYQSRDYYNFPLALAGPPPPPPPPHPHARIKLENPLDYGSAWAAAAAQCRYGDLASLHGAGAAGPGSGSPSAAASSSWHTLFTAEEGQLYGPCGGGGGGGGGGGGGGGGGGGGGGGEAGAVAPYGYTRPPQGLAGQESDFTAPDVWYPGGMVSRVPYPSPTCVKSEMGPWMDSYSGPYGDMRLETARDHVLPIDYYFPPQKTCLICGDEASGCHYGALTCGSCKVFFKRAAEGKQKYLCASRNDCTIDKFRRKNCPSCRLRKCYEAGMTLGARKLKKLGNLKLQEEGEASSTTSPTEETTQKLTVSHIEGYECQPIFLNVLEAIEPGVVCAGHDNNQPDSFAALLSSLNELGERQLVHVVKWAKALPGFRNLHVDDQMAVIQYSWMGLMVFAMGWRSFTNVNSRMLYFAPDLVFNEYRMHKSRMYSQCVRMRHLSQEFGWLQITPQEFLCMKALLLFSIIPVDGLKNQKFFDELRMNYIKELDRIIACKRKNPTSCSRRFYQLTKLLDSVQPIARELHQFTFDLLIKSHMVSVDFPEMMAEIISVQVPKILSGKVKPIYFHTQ
# RUN_DESCRIPTION: ACEA_AR_antagonist_80hr: ACEA Biosciences xCELLigence Real-Time Cell Analysis on Androgen Receptor Antagonism for Proliferation (AID 2283787);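 also: 22Rv1 human prostate cancer cells with growth followed by electrical impedance; hits lower the impedance growth signal relative to DMSO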
Inconclusive results are not listed. The source made the active and inactive calls. Rule for the calls: active = hit-call score of the fitted dose curve at least 0.9, where 1 is the maximum; inconclusive = response in the unintended direction; inactive = score below 0.9.
Labels: y = active, n = inactive

# COMPOUND, SUBJECT_OF_TEST, DISCRETE_LABEL
measured = [
    ("O=[N+]([O-])c1ccc(Cl)c([N+](=O)[O-])c1", "AR (gene 367) (UniProt P10275)", "y"),
    ("N#CCC#N", "AR (gene 367) (UniProt P10275)", "n"),
    ("O=C(CCl)Nc1ccccc1", "AR (gene 367) (UniProt P10275)", "y"),
    ("O=C1c2ccccc2C(=O)C1C(=O)C(c1ccccc1)c1ccc(Cl)cc1 (stereo unspecified)", "AR (gene 367) (UniProt P10275)", "y"),
    ("O=S1OC[C@@H]2[C@H](CO1)[C@]1(Cl)C(Cl)=C(Cl)[C@@]2(Cl)C1(Cl)Cl (stereo partly specified)", "AR (gene 367) (UniProt P10275)", "n"),
    ("O=C(N[C@H]1CN2CCC1CC2)c1ccc2c(c1)OCCO2", "AR (gene 367) (UniProt P10275)", "n"),
]

###

# SUBJECT_OF_TEST: Hypoxia-inducible factor 1-alpha (Homo sapiens) (UniProt Q16665)
# Sequence (Q16665 whole entry, looked up): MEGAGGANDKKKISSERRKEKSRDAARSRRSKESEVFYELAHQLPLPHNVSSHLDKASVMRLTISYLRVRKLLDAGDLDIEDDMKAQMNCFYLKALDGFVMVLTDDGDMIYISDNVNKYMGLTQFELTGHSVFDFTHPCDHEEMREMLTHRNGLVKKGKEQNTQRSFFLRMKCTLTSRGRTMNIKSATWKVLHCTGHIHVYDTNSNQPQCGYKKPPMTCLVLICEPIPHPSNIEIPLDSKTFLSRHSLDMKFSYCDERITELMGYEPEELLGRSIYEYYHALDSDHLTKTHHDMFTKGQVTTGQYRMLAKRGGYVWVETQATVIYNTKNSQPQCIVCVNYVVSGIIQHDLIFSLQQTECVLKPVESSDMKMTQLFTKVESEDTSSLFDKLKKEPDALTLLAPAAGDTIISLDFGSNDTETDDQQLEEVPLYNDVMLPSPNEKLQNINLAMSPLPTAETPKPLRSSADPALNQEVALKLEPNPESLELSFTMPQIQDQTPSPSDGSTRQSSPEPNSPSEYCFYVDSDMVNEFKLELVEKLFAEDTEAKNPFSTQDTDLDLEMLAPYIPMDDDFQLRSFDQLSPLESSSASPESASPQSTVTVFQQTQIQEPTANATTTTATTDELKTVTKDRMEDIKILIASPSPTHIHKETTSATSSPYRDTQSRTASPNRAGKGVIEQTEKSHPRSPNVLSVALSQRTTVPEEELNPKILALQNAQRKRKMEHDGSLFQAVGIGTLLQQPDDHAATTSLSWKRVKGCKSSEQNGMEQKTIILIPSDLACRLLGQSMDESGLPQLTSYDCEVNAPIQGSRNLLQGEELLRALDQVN
# RUN_DESCRIPTION: ATG_HIF1a_CIS: Attagene CIS-FACTORIAL HepG2 Assay for human Hypoxia Inducible Factor 1 (HIF1A) (AID 2282951)
# EXPERIMENTAL_PARAMETERS: HepG2 Attagene cis-factorial HIF1a reporter transcription; actives raise or lower the signal
Activity calls are given as the source filed them. Rule for the calls: active = hit-call score of the fitted dose curve at least 0.9, where 1 is the maximum; inactive = score below 0.9.
Outcome codes: Y for active, N for inactive

# MOLECULE, DISCRETE_LABEL
records = [
    ("CCCSP(=S)(OCC)Oc1ccc(SC)cc1 (stereo unspecified)", "N"),
    ("CNC(=O)N(C)c1nc2ccccc2s1", "N"),
    ("Cc1ccccc1OP(=O)(Oc1ccccc1)Oc1ccccc1", "N"),
    ("C=CC(=O)[O][Sn]([CH2]CCC)([CH2]CCC)[CH2]CCC", "N"),
    ("O=[N+]([O-])c1cccc2ccccc12", "N"),
    ("Brc1ccc(Br)cc1", "N"),
    ("CCCCOC(C)=O", "N"),
    ("CC(C)(C)c1ccc(CCOc2ncnc3ccccc23)cc1", "N"),
    ("OCCCCO", "N"),
    ("CC(C)(c1ccc(O)c(-c2ccccc2)c1)c1ccc(O)c(-c2ccccc2)c1", "N"),
    ("NC(=O)c1ccc(N)nc1", "N"),
    ("O=C1C=CC(=O)c2ccccc21", "N"),
    ("Cc1ccc(CCl)cc1", "N"),
    ("c1cc[c]([Sb]([c]2ccccc2)[c]2ccccc2)cc1", "N"),
    ("N#Cc1ccc(Cl)cc1", "N"),
    ("CCCCCCCCCCCCCl", "N"),
    ("COc1ccc([N+](=O)[O-])cc1O", "N"),
    ("CCN(N=O)C(N)=O", "N"),
    ("C1CCC(C2CCCCC2)CC1", "N"),
    ("Oc1ccc(Cc2ccc(O)cc2)cc1", "N"),
    ("CN(N=O)c1ccc([N+](=O)[O-])cc1", "N"),
    ("BrCc1ccc(Br)cc1", "N"),
    ("CN(C1CCCCC1)C1CCCCC1", "N"),
    ("O=S1OC[C@@H]2[C@H](CO1)[C@]1(Cl)C(Cl)=C(Cl)[C@@]2(Cl)C1(Cl)Cl (stereo partly specified)", "N"),
    ("ClCc1ccccc1CCl", "N"),
    ("c1csc(-c2ccc(-c3cccs3)s2)c1", "Y"),
    ("CNC(=O)CSP(=O)(OC)OC", "N"),
    ("O=C(CCl)Nc1ccccc1", "Y"),
    ("Oc1cc(Cl)c(Cl)cc1Cl", "N"),
    ("O=S(=O)(F)C(F)(F)C(F)(F)C(F)(F)C(F)(F)F", "N"),
    ("CCOC(=O)CC(=O)CCl", "N"),
]

Ref: PubChem BioAssay (EPA / NIEHS)
